Experiment: 3NOP to adsorbent ratio study
Format: physicochemical
Settings: 3NOP:Adsorbent 1:2; distilled water at 1% 3NOP loading, 24 hr
Recorded Average Integrated Area of 3NOP in solution by entry
measurement.name: Average Integrated Area of 3NOP in solution

>  <smiles.text>
N[C@@H](CCC(=O)O)C(=O)O

>  <result>
2452.5

$$$$
>  <smiles.text>
O=[N+]([O-])OCCCO

>  <result>
2566.4

$$$$
>  <smiles.text>
NCCCC[C@H](N)C(=O)O

>  <result>
2308.9

$$$$
>  <smiles.text>
N=C(N)NCCC[C@H](N)C(=O)O

>  <result>
2372.8

$$$$

###

Each item that follows carries a reported 3NOP concentration.
Assay: Adsorbent study: binding affinity and adsorptive capacity for 3NOP (HPLC at 230 nm)
Settings: 0.2 g of adsorbent in 10 mL of 1% 3NOP/H2O; after 24 hr; Control 8.258
measurement.name: 3NOP concentration (mM)

>  <compound>
C[N+](C)(C)CC(=O)O [Betaine]

>  <measurement.name>
3NOP concentration

>  <recorded.number>
7.202

$$$$
>  <compound>
O=C([O-])CC(O)(CC(=O)[O-])C(=O)[O-].[Bi+3] [Bismuth Citrate]

>  <measurement.name>
3NOP concentration

>  <recorded.number>
8.072

$$$$
>  <compound>
O=S(=O)([O-])[O-].O=S(=O)([O-])[O-].O=S(=O)([O-])[O-].[Bi+3].[Bi+3] [Bismuth Sulfate]

>  <measurement.name>
3NOP concentration

>  <recorded.number>
8.079

$$$$
>  <compound>
NC(=O)CC[C@H](N)C(=O)O [Glutamine]

>  <measurement.name>
3NOP concentration

>  <recorded.number>
7.588

$$$$
>  <compound>
O=S(=O)([O-])[O-].[Cu+2] [Copper Sulfate]

>  <measurement.name>
3NOP concentration

>  <recorded.number>
7.814

$$$$

###

Experiment: 3NOP to adsorbent ratio study
Type: physicochemical
Conditions: 3NOP:Adsorbent 1:2.5; distilled water at 1% 3NOP loading, 24 hr
Description: Optimal loading of 3NOP onto adsorbents was determined by varying ratios of 3NOP to adsorbent. 3NOP and adsorbent were speed mixed at 2000 rpm for 1 min. at the following ratios by weight: 1:1.5, 1:2, 1:2.5. The adsorbed 3NOP powder mixture was then placed in distilled water at 1% 3NOP loading. The solution was allowed to equilibrate for 24 hr and then an aliquot was taken for HPLC to determine the reduction in 3NOP concentration.
measurement.name: Average Integrated Area of 3NOP in solution

>  <smiles.text>
O=[N+]([O-])OCCCO

>  <recorded.number>
2566.4

$$$$
>  <smiles.text>
N[C@@H](CCC(=O)O)C(=O)O

>  <recorded.number>
2446.3

$$$$
>  <smiles.text>
N=C(N)NCCC[C@H](N)C(=O)O

>  <recorded.number>
2435.2

$$$$
>  <smiles.text>
NCCCC[C@H](N)C(=O)O

>  <recorded.number>
2266.6

$$$$

###

Test: 3NOP to adsorbent ratio study
Format: physicochemical
Conditions: 3NOP:Adsorbent 1:1.5; distilled water at 1% 3NOP loading, 24 hr
Experimental: Optimal loading of 3NOP onto adsorbents was determined by varying ratios of 3NOP to adsorbent. 3NOP and adsorbent were speed mixed at 2000 rpm for 1 min. at the following ratios by weight: 1:1.5, 1:2, 1:2.5. The adsorbed 3NOP powder mixture was then placed in distilled water at 1% 3NOP loading. The solution was allowed to equilibrate for 24 hr and then an aliquot was taken for HPLC to determine the reduction in 3NOP concentration.
measurement.name: Average Integrated Area of 3NOP in solution

>  <smiles.text>
N[C@@H](CCC(=O)O)C(=O)O

>  <recorded.number>
2445.9

$$$$
>  <smiles.text>
N=C(N)NCCC[C@H](N)C(=O)O

>  <recorded.number>
2406.0

$$$$
>  <smiles.text>
O=[N+]([O-])OCCCO

>  <recorded.number>
2566.4

$$$$
>  <smiles.text>
NCCCC[C@H](N)C(=O)O

>  <recorded.number>
2336.2

$$$$
